Assay: Equilibrium solubility in water and aqueous media
Type: physicochemical
Conditions: water, 22.5 °C, pH 6.85, water, thermodynamic from solid, Sample 3, duration 69 h, isolation method 2, pH 6.85, about 20 to 25° C.
MEASURED ENDPOINT: solubility at 69 h (µg/mL)

> print(dat)
                                   molecule  observed
1  COCCOc1cnc2ccn([C@H](C)c3nnc4c(F)cc(-c5cnn(C)c5)cn34)c(=O)c2c1 [free base monohydrate form of Compound M]       262

---

Assay: Equilibrium solubility in water and aqueous media
Assay type: physicochemical
Settings: water, 22.5 °C, water, thermodynamic from solid, water; pH about 4 to about 7; about 20° C. to about 25° C.; read-out: aqueous solubility
MEASURED ENDPOINT: solubility (µg/mL)

> print(dat)
                                   compound  measured.endpoint  observed
1  COCCOc1cnc2ccn([C@H](C)c3nnc4c(F)cc(-c5cnn(C)c5)cn34)c(=O)c2c1 [free base monohydrate form of Compound M]         solubility       260
